Attribution: ChEMBL document CHEMBL1149515

procedureSummary: Lipophilicity, LogD of the compound
Format: physicochemical
experimentalSetup: octanol/water
assayReadout: logD
// no unit, no text: just the number

{"columns": ["compoundStructureString", "logD"],
 "data": [
  ["CC(C)(C)NC(=O)c1cn2ccnc2c(N2CCN(c3ncccn3)CC2)n1", 3.7],
  ["CCN1CCC(NC(=O)c2nc(N3CCN(c4ncccn4)CC3)c3nccn3c2C)CC1", 1.2],
  ["c1cn2ccnc2c(-c2ccc(N3CCCC3)nc2)n1", 2.5]
]}

From here, focus on the item given below.
Memo: c1cnc(N2CCN(c3nccn4ccnc34)CC2)nc1 , reported logD: 2

====

Test system: CYP1A2
procedureSummary: Half life assessed as CYP1A2 mediated metabolism at 1 uM
Format: ADME
Reported values of half-life at 1 µM for individual entries

{"columns": ["compound", "half-life at 1 µM"],
 "data": [
  ["O=C(NC1CCNC1)c1cn2ccnc2c(N2CCN(c3ccccn3)CC2)n1 (stereo unspecified)", "> 2 h"],
  ["O=C(CCc1cnc2c(N3CCN(c4ncccn4)CC3)nccn12)N1CCOCC1", "> 2 h"],
  ["CN1CCC(NC(=O)c2cn3ccnc3c(N3CCN(c4ccccn4)CC3)n2)CC1", "1.58 h"],
  ["c1cn2ccnc2c(N2CCN(C3CCCC3)CC2)n1", "> 2 h"],
  ["c1cnc(N2CCN(c3nccn4ccnc34)CC2)nc1", "0.0333 h"]
]}

From here, focus on the item given below.
Memo: c1cn2ccnc2c(-c2ccc(N3CCCC3)nc2)n1 , reported half-life at 1 µM: < 0.0167 h

====

Reported values of half-life at 1 µM for individual entries
Test system: CYP1A1
procedureSummary: Half life assessed as CYP1A1 mediated metabolism at 1 uM
Type: ADME

{"columns": ["compoundStructureString", "readoutValue"],
 "data": [
  ["CN1CCC(NC(=O)c2cn3ccnc3c(N3CCN(c4ccccn4)CC3)n2)CC1", "45 min"],
  ["CC(C)(C)NC(=O)c1cn2ccnc2c(N2CCN(c3ncccn3)CC2)n1", "13 min"],
  ["O=C(CCc1cnc2c(N3CCN(c4ncccn4)CC3)nccn12)N1CCOCC1", "> 120 min"],
  ["c1cnc(N2CCN(c3nccn4ccnc34)CC2)nc1", "< 2 min"],
  ["CCN1CCC(NC(=O)c2nc(N3CCN(c4ncccn4)CC3)c3nccn3c2C)CC1", "> 120 min"]
]}

From here, focus on the item given below.
Hey, CYP1A1 data for c1cn2ccnc2c(-c2ccc(N3CCCC3)nc2)n1 : half-life at 1 µM came out at < 1 min
